Where do these numbers come from? They come from the domain aggregation screens of Martell et al. (2025).

Catalogue of soluble fraction (log2) readings, one per entry.
assay: soluble fraction after stress (log2 fold change); higher = more stays soluble; pooled small domains, quantitative proteomics; settings: stress: 50 degC
Measurement label: soluble fraction (log2)

1) HMDAQNLQDQLFGFLKANPTQAYPAQTLADGLRLDDANAFTKVVQALAALERGGKVKVNEEGAFQYDAEK | 0.0478
2) HMFLPGETFDVKIVKIGEGENQGVGYLDDGTMIVIENGRDHLNELARVIVTRVLQNSAGQMIFSDYEE | -2.27
3) HMVNFKLIGNKIAEARKKVNISQAQLAQRLFISSQAVGKWERGESMPDIITFNRLAEILGVDLNYFSE | 0.0107
4) HMGISVEVPDLKNMSVAEAGSLLKNSGLSYAVVDSDYVKTISPGKILDQNPGRGLRVKKGRIVYLTINSL | -1.37
5) HMVQVPSLVGISEIEAKTLLTQAGFFVKIVEVFDANQPVGIVLAQAPSAGESRIIGSPVTITVNKAQ | -0.867
6) HMSGTMYATAEVNVRSTYSSDGTIYGTLSKGTAVEITGTTDNGWVRVKYNGTTAYVYADYLSWKAP | -0.671
7) HMDLKTNSQLINELEKKIKRPFDREIKNYLNKNLSTDRMISNNEIDKIILFYSGNNEIPNIEKISLILNDN | -0.112
8) HMRGFTDFEHIEKEYLATIEKLNWPDGVTLPDKLEGEDTGTSFQVGYGDTRASNLWEYSWMK | -0.0186
